biological target: T1, Epidermal growth factor receptor (UniProt P00533 25-645); assay: SPR; Biacore X; EGFR amine-coupled to a CM5 chip, ligands flowed over; room temperature; running buffer PBS; flow 10 ul/min; regeneration 50 mM NaOH; channel without EGFR as control; EGF 0.25-4 uM, GE11 10-160 uM; KD from BIAEvaluation software; settings: both partners purified
T1 construct: Epidermal growth factor receptor (EGFR), bought from Sigma-Aldrich; Coupled by its amines to the dextran of a CM5 chip (about 12,000 RU) for both SPR and AFM; also called EGFR; source: bought: Sigma-Aldrich
measured_attribute: Kd (µM)

binder: YHWYGYTPQNVI (In solution for SPR; for AFM coupled to succinimide-modified silicon nitride tips; source: synthetic peptide, custom synthesized by Millipore) [Peptide GE11]
measured_attribute: Kd
reading: 459
